TEST TARGET: SCRIB_3, Q14160
Sequence (Q14160 999-1103): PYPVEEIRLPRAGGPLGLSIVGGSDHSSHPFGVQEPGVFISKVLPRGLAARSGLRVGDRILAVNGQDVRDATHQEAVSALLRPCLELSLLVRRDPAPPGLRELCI
ASSAY METHOD TEXT: holdup assay
Design: key: below the threshold = too weak to quantify, mostly under pKd 3.1 to 4
RUN PARAMETERS: plain residues with an end cap or a label only (N-terminal biotin on a linker: ahx)
MEASURED QUANTITY: pKd

[[record]]
binder = "ESLLLGPSNF [SHROOM4, Q9ULL8]"
reported_measurement = "below the threshold"

[[record]]
binder = "GYDWGPATDL [TJP3, O95049]"
reported_measurement = 4.93

[[record]]
binder = "RRRKRKRTYL [HPV49-L2, P36762]"
reported_measurement = 3.75

[[record]]
binder = "PSASCAVTAA [PDLIM4, P50479;P50479-2]"
reported_measurement = "below the threshold"

[[record]]
binder = "NRKREIFSNF [NHERF2, Q15599]"
reported_measurement = "below the threshold"

[[record]]
binder = "LSDPSVSTVV [GRIN1, Q05586;Q05586-2]"
reported_measurement = "below the threshold"

[[record]]
binder = "TVICWPGSLV [LNX2, Q8N448]"
reported_measurement = 4.11

[[record]]
binder = "HNAFLSVTTV [PDZRN4, Q6ZMN7]"
reported_measurement = "below the threshold"

[[record]]
binder = "RAVEEEESRF [PSCDBP, O60759]"
reported_measurement = "below the threshold"

[[record]]
binder = "SDSSGQEYSL [KCTD3, Q9Y597]"
reported_measurement = "below the threshold"

